# System: PEO1 (Ovarian Carcinoma)
# measurementNotes: combination Emax (second highest fraction inhibited in the dose matrix, 72 h); higher = more inhibition; extreme values may be limits of the assay
// combination Emax lookup, one value per entry
measureName: combination Emax

1) Cc1cc2ncnn2cc1Nc1ncc2c(n1)n(C1CCOCC1)c(=O)n2C [AZD7648] + C[C@@H]1COCCN1C2=NC(=NC(=C2)C3(CC3)[S@](=N)(=O)C)C4=C5C=CNC5=NC=C4 [AZD6738] (first compound max 10 µM, 7x7, partner max 10 µM) = 0.482
2) Cc1c2c(nn1C)CSCc1cc(n(C)n1)CSc1cc(c3ccccc3c1)OCCCc1c(C(=O)O)n(C)c3c-2c(Cl)ccc13 [AZD5991] + C[C@@H]1COCCN1C2=NC(=NC(=C2)C3(CC3)[S@](=N)(=O)C)C4=C5C=CNC5=NC=C4 [AZD6738] (first compound max 1 µM, 7x7, partner max 10 µM) = 0.522
3) C=CCn1c(=O)c2cnc(Nc3ccc(N4CCN(C)CC4)cc3)nc2n1-c1cccc(C(C)(C)O)n1 [AZD1775] + C[C@@H]1COCCN1C2=NC(=NC(=C2)C3(CC3)[S@](=N)(=O)C)C4=C5C=CNC5=NC=C4 [AZD6738] (first compound max 1 µM, partner max 10 µM) = 0.6
4) Cn1cnc2c(F)c(Nc3ccc(Br)cc3Cl)c(C(=O)NOCCO)cc21 [Selumetinib] + CC(C)n1c(=O)n(C)c2cnc3cc(F)c(-c4ccc(OCCCN5CCCCC5)nc4)cc3c21 [AZD1390] (first compound max 10 µM, 7x7, partner max 0.3 µM) = 0.266

* * *

// Bliss excess lookup, one value per entry
# Tested on: ESO26 (Esophageal Adenocarcinoma)
# measurementNotes: Bliss excess, mean over the matrix (fraction); higher = more synergy
measureName: Bliss excess

1) CC1(C)CCC(CN2CCN(c3ccc(C(=O)NS(=O)(=O)c4ccc(NCC5CCOCC5)c([N+](=O)[O-])c4)c(Oc4cnc5[nH]ccc5c4)c3)CC2)=C(c2ccc(Cl)cc2)C1 [Venetoclax] + CCN(CCO)CCCOc1ccc2c(Nc3cc(CC(=O)Nc4cccc(F)c4)[nH]n3)ncnc2c1 [AZD2811] (first compound max 1 µM, 7x7, partner max 1 µM) = -0.0262
2) NC1(C(=O)N[C@@H](CCO)c2ccc(Cl)cc2)CCN(c2ncnc3[nH]ccc23)CC1 [Capivasertib] + CCN(CCO)CCCOc1ccc2c(Nc3cc(CC(=O)Nc4cccc(F)c4)[nH]n3)ncnc2c1 [AZD2811] (first compound max 10 µM, 7x7, partner max 1 µM) = -0.0308
3) NC1(C(=O)N[C@@H](CCO)c2ccc(Cl)cc2)CCN(c2ncnc3[nH]ccc23)CC1 [Capivasertib] + CC(=O)c1c(C)c2cnc(Nc3ccc(N4CCNCC4)cn3)nc2n(C2CCCC2)c1=O [Palbociclib] (first compound max 10 µM, 7x7, partner max 10 µM) = -0.0512

* * *

# Test system: LU-165 (Small Cell Lung Carcinoma)
# measurementNotes: Bliss excess, mean over the matrix (fraction); higher = more synergy
// Bliss excess lookup, one value per entry
measureName: Bliss excess

1) CC1(C)CCC(CN2CCN(c3ccc(C(=O)NS(=O)(=O)c4ccc(NCC5CCOCC5)c([N+](=O)[O-])c4)c(Oc4cnc5[nH]ccc5c4)c3)CC2)=C(c2ccc(Cl)cc2)C1 [Venetoclax] + CS(=O)(=O)CCNCc1ccc(-c2ccc3ncnc(Nc4ccc(OCc5cccc(F)c5)c(Cl)c4)c3c2)o1 [Lapatinib] (first compound max 1 µM, 7x7, partner max 10 µM) = -0.0289
2) Cc1cc2ncnn2cc1Nc1ncc2c(n1)n(C1CCOCC1)c(=O)n2C [AZD7648] + C[C@@H]1COCCN1C2=NC(=NC(=C2)C3(CC3)[S@](=N)(=O)C)C4=C5C=CNC5=NC=C4 [AZD6738] (first compound max 10 µM, 7x7, partner max 10 µM) = 0.0351
3) Cn1cnc2c(F)c(Nc3ccc(Br)cc3Cl)c(C(=O)NOCCO)cc21 [Selumetinib] + C[C@@H]1COCCN1C2=NC(=NC(=C2)C3(CC3)[S@](=N)(=O)C)C4=C5C=CNC5=NC=C4 [AZD6738] (first compound max 10 µM, 7x7, partner max 10 µM) = -0.0284
4) CN(CCO)CC[C@H](CSc1ccccc1)Nc1ccc(S(=O)(=O)NC(=O)c2ccc(N3CCC([C@@H](O)c4ccccc4-c4ccc(Cl)cc4)CC3)cc2)cc1S(=O)(=O)C(F)(F)F [AZD4320] + C[C@@H](Nc1cc(F)cc(F)c1)c1cc(C(=O)N(C)C)cc2c(=O)cc(N3CCOCC3)oc12 [AZD8186] (first compound max 1 µM, 7x7, partner max 3 µM) = -0.0236
5) Cc1cc2ncnn2cc1Nc1ncc2c(n1)n(C1CCOCC1)c(=O)n2C [AZD7648] + CCN(CCO)CCCOc1ccc2c(Nc3cc(CC(=O)Nc4cccc(F)c4)[nH]n3)ncnc2c1 [AZD2811] (first compound max 10 µM, 7x7, partner max 1 µM) = -0.0339
6) N#Cc1cnc(Nc2cc(NC[C@H]3CNCCO3)c(C(F)(F)F)cn2)cn1 [SRA737] + O=c1[nH]cc(F)c(=O)[nH]1 [5-Fluorouracil] (first compound max 10 µM, 7x7, partner max 20 µM) = -0.082
7) C[C@@H](c1ccc2nccn2c1)n1nnc2ncc(-c3cnn(C)c3)nc21 [Savolitinib] + Cc1c2c(nn1C)CSCc1cc(n(C)n1)CSc1cc(c3ccccc3c1)OCCCc1c(C(=O)O)n(C)c3c-2c(Cl)ccc13 [AZD5991] (first compound max 1 µM, 7x7, partner max 1 µM) = -0.0046
8) CC(=O)c1c(C)c2cnc(Nc3ccc(N4CCNCC4)cn3)nc2n(C2CCCC2)c1=O [Palbociclib] + Cn1cnc2c(F)c(Nc3ccc(Br)cc3Cl)c(C(=O)NOCCO)cc21 [Selumetinib] (first compound max 10 µM, 7x7, partner max 10 µM) = -0.0518
9) CCN(CCO)CCCOc1ccc2c(Nc3cc(CC(=O)Nc4cccc(F)c4)[nH]n3)ncnc2c1 [AZD2811] + O=C(c1cc(Cc2n[nH]c(=O)c3ccccc23)ccc1F)N1CCN(C(=O)C2CC2)CC1 [Olaparib] (first compound max 1 µM, 7x7, partner max 10 µM) = -0.0454
10) COc1cccc(OCCCN)c1-c1cc(Nc2cnc(C#N)cn2)n[nH]1 [Prexasertib] + O=C(c1cc(Cc2n[nH]c(=O)c3ccccc23)ccc1F)N1CCN(C(=O)C2CC2)CC1 [Olaparib] (first compound max 1 µM, 7x7, partner max 10 µM) = -0.128
11) N#Cc1cnc(Nc2cc(NC[C@H]3CNCCO3)c(C(F)(F)F)cn2)cn1 [SRA737] + C=CCn1c(=O)c2cnc(Nc3ccc(N4CCN(C)CC4)cc3)nc2n1-c1cccc(C(C)(C)O)n1 [AZD1775] (first compound max 10 µM, partner max 1 µM) = 0.0319
12) CCN(CCO)CCCOc1ccc2c(Nc3cc(CC(=O)Nc4cccc(F)c4)[nH]n3)ncnc2c1 [AZD2811] + C[C@@H]1COCCN1C2=NC(=NC(=C2)C3(CC3)[S@](=N)(=O)C)C4=C5C=CNC5=NC=C4 [AZD6738] (first compound max 1 µM, 7x7, partner max 10 µM) = -0.0637
13) Cc1nc(-c2cn3c(n2)-c2ccc(-c4cnn(C(C)(C)C(N)=O)c4)cc2OCC3)n(C(C)C)n1 [Taselisib] + O=C(Nc1ccc2[nH]nc(-c3ccncc3)c2c1)[C@@H]1CCN(CC(=O)N2CCN(c3ccc(-c4ncccn4)cc3)CC2)C1 [SCH772984] (first compound max 10 µM, 7x7, partner max 5 µM) = -0.0073
14) COc1nnc2ccc(N3CCC(c4ccc(OCCN5CCN(C)C(=O)[C@H]5C)cc4)CC3)nn12 [AZD5153] + Cc1c2c(nn1C)CSCc1cc(n(C)n1)CSc1cc(c3ccccc3c1)OCCCc1c(C(=O)O)n(C)c3c-2c(Cl)ccc13 [AZD5991] (first compound max 1 µM, 7x7, partner max 1 µM) = -0.0173

* * *

# System: EB2 (Burkitt's Lymphoma)
# measurementNotes: combination Emax (second highest fraction inhibited in the dose matrix, 72 h); higher = more inhibition; extreme values may be limits of the assay
measureName: combination Emax

1) CC1(C)CCC(CN2CCN(c3ccc(C(=O)NS(=O)(=O)c4ccc(NCC5CCOCC5)c([N+](=O)[O-])c4)c(Oc4cnc5[nH]ccc5c4)c3)CC2)=C(c2ccc(Cl)cc2)C1 [Venetoclax] + C[C@@H](Nc1cc(F)cc(F)c1)c1cc(C(=O)N(C)C)cc2c(=O)cc(N3CCOCC3)oc12 [AZD8186] (first compound max 1 µM, 7x7, partner max 3 µM) = 0.746
2) NC1(C(=O)N[C@@H](CCO)c2ccc(Cl)cc2)CCN(c2ncnc3[nH]ccc23)CC1 [Capivasertib] + COc1nnc2ccc(N3CCC(c4ccc(OCCN5CCN(C)C(=O)[C@H]5C)cc4)CC3)nn12 [AZD5153] (first compound max 10 µM, 7x7, partner max 1 µM) = 0.707
3) Cc1c2c(nn1C)CSCc1cc(n(C)n1)CSc1cc(c3ccccc3c1)OCCCc1c(C(=O)O)n(C)c3c-2c(Cl)ccc13 [AZD5991] + CN(C)CCCOc1ccc(-c2ccc3ncc4c(c3c2)n(C2CCOCC2)c(=O)n4C)cn1 [AZD0156] (first compound max 1 µM, 7x7, partner max 1 µM) = 0.42
4) CN(CCO)CC[C@H](CSc1ccccc1)Nc1ccc(S(=O)(=O)NC(=O)c2ccc(N3CCC([C@@H](O)c4ccccc4-c4ccc(Cl)cc4)CC3)cc2)cc1S(=O)(=O)C(F)(F)F [AZD4320] + C1CN(CCC1(C(=O)N[C@@H](CCO)C2=CC=C(C=C2)Cl)N)C3=NC=NC4=C3C=CN4 [Capivasertib] (first compound max 1 µM, 7x7, partner max 3 µM) = 0.534
